Sourced from the supplement of paper PMC4466140

measurement.target: ScPex13
assay.summary: SPOT peptide array binding signal intensity (averaged, normalized) (arbitrary units (background-subtracted, floor 0; scale differs between SH3 domains)); higher = stronger binding of the SH3 domain to the peptide
Returns true (1) if the recorded SPOT peptide array binding signal intensity is greater than or equal to 20, and false (0) otherwise.

{"binder": "RRTRLRPPTPLSQLL", "qualitative.label": "false (0)"}
{"binder": "VDFTLPPPPPPPGLD", "qualitative.label": "false (0)"}
{"binder": "RRRRRPHRIERPLSN", "qualitative.label": "false (0)"}
{"binder": "PHNPSPFFPPPDFND", "qualitative.label": "true (1)"}
{"binder": "TKFRISLGLPVGAIM", "qualitative.label": "true (1)"}
{"binder": "RLSFFFPLDPAYIRN", "qualitative.label": "false (0)"}
